I'd be grateful if you could share measured logP for these entries.
MEASUREMENT_PROTOCOL: logP determination via retention times, calibrated with unbranched alkan-2-ones
Assay type: physicochemical
RUN_PARAMETERS: HPLC on reversed-phase C18, method *: 40° C., 0.1% aqueous formic acid and acetonitrile, linear gradient 10% to 95% acetonitrile
Marks after values point to notes of the source that are not given here.

Exercise: Answer with reported logP of Clc1cnc(Nc2ccc(C3CCCCC3)cc2)nc1NC1CC1
Key: 3.29*

Exercise: Answer with reported logP of Clc1cnc(Nc2cccc(-n3ccnc3)c2)nc1NC1CC1
Key: 0.91*

Exercise: Answer with reported logP of CCN(CC)C(=O)c1cccc(Nc2ncc(Cl)c(NC3CC3)n2)c1
Key: 1.86*

Exercise: Answer with reported logP of O=CNc1cccc(Nc2ncc(Br)c(NC3CC3)n2)c1
Key: 1.23*

Exercise: Answer with reported logP of Clc1cnc(Nc2ccccc2Cc2ccccc2)nc1NC1CC1
Key: 2.21*

Exercise: Answer with reported logP of FC(F)c1cnc(Nc2ccccc2)nc1NC1CC1
Key: 1.56*

Exercise: Answer with reported logP of FC(F)(F)Oc1ccc(Nc2ncc(Br)c(NC3CC3)n2)cc1Cl
Key: 4.13*

Exercise: Answer with reported logP of CCC(C)c1ccc(Nc2ncc(Cl)c(NC3CC3)n2)cc1 (racemic)
Key: 2.77*

Exercise: Answer with reported logP of CC(C)C(=O)Nc1ccc(Nc2ncc(Cl)c(NC3CC3)n2)cc1
Key: 1.43*

Exercise: Answer with reported logP of Cc1cccc(C)c1Nc1ncc(Cl)c(NCC2CC2)n1
Key: 1.87*

Exercise: Answer with reported logP of CSc1ccc(Nc2ncc(Cl)c(NC3CC3)n2)cc1N
Key: 1.69*

Exercise: Answer with reported logP of CSc1ccc(Nc2ncc(Cl)c(NCC3CC3)n2)cc1
Key: 2.18*

Exercise: Answer with reported logP of C/C(=N/O)c1cccc(Nc2ncc(Cl)c(NC3CC3)n2)c1
Key: 1.52*

Exercise: Answer with reported logP of Clc1ccc(Oc2ccccc2)c(Nc2ncc(Cl)c(NC3CC3)n2)c1
Key: 4.87*

Exercise: Answer with reported logP of CC(=O)CCc1cccc(Nc2ncc(C(F)(F)F)c(NC3CC3)n2)c1
Key: 2.68*

Exercise: Answer with reported logP of CCOc1cccc(Nc2ncc(Cl)c(NCC3CC3)n2)c1
Key: 2.21*

Exercise: Answer with reported logP of CC(C)(C)OC(=O)Nc1ccc(Nc2ncc(Cl)c(NC3CC3)n2)cc1
Key: 2.12*

Exercise: Answer with reported logP of Cc1cc(Nc2ncc(Br)c(NC3CC3)n2)ccc1O
Key: 1.35*

Exercise: Answer with reported logP of CN(C=O)c1ccc(Nc2ncc(Cl)c(NC3CC3)n2)cc1
Key: 1.44*

Exercise: Answer with reported logP of CC(C)C1COC(=O)N1c1ccc(Nc2ncc(Cl)c(NC3CC3)n2)cc1 (centres unmarked)
Key: 2.79*
